The values you see were collected from the supplement of paper PMC10567573.

Each entry below carries its recorded protein stability index.
B1: RAD51 (parent)
chain: RFLRMLLRLADEFGVAVVITNQVV

variants of: B1; test: protein stability index of a GFP-peptide fusion (GPS, HEK-293T) (PSI 1-6); higher = more stable; conditions: c terminus: a fixed tail appended;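 note: lentivirally expressed fusions sorted by FACS into six bins by GFP to DsRed ratio, PSI derived from sequencing read proportions per bin multiplied by bin number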
assay.endpoint: protein stability index

RFLRMLLRLADHFGVAVVITNQVV | 3.24
RFLRMLLRLADEFGVAVVITNQVR | 2.55
RPLRMLLRLADEFGVAVVITNQVV | 2.89
RFLRMLERLADEFGVAVVITNQVV | 2.69
RFLRMLLRLADEFGVFVVITNQVV | 1.55
RFLRMLNRLADEFGVAVVITNQVV | 1.71
RFLRMLLRLADEFGVAVVITWQVV | 1.76
RFLRMFLRLADEFGVAVVITNQVV | 3.14
RFLRMLLRLADEFGVAVVITNQYV | 1.5
RFLRMLLRLADEFGVAKVITNQVV | 2.65
RFLRMLLRLADEFGVAVNITNQVV | 3.8
RFLRMLLRLADEFGVAVVITDQVV | 4.17
RFLRMTLRLADEFGVAVVITNQVV | 3.04
RFLRMLLRLADEFGVAVVPTNQVV | 1.47
RFLRMLLRLADEFGVAVEITNQVV | 2.44
RFLCMLLRLADEFGVAVVITNQVV | 2.77
RFLRMLLRLADEFGVAVVITNQLV | 2.38
RFLKMLLRLADEFGVAVVITNQVV | 2.82
RFLRMLLRLADEFGVAVVINNQVV | 1.21
SFLRMLLRLADEFGVAVVITNQVV | 2.27
RFLRRLLRLADEFGVAVVITNQVV | 1.83
RFLRMLLRLALEFGVAVVITNQVV | 2.46
